Values compiled from ChEMBL document CHEMBL1136274.

target: Sphingosine 1-phosphate receptor 3 (Homo sapiens, UniProt Q99500); assay: In vitro binding affinity towards human Sphingosine 1-phosphate receptor 3 expressed in HEK293T cells using [gamma-35S]-GTP as radioligand (Experiment 2); format: cell-based, HEK-293T
Sequence (Q99500 whole entry): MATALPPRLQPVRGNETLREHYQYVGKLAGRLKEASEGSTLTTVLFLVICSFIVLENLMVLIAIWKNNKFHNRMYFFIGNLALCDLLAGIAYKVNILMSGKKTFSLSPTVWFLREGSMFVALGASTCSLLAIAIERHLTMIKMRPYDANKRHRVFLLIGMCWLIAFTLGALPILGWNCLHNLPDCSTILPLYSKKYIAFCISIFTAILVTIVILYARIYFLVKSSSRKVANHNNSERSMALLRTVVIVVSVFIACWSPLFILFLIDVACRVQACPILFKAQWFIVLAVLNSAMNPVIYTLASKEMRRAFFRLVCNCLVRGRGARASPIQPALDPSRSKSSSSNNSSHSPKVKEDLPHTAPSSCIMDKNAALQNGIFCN
readout.label: EC50 (nM)
Answers are plain numbers, in nM.

Prompt: // lookup EC50 for `CCCCCCCCCCCCC/C=C/[C@@H](O)[C@@H](N)COP(=O)(O)O`
Response: 8.7

###

molecular target: Sphingosine 1-phosphate receptor 1 (Homo sapiens, UniProt P21453); test: In vitro binding affinity towards human Sphingosine 1-phosphate receptor 1 expressed in HEK293T cells using [gamma-35S]-GTP as radioligand; assay type: cell-based, HEK-293T
Sequence (P21453 whole entry): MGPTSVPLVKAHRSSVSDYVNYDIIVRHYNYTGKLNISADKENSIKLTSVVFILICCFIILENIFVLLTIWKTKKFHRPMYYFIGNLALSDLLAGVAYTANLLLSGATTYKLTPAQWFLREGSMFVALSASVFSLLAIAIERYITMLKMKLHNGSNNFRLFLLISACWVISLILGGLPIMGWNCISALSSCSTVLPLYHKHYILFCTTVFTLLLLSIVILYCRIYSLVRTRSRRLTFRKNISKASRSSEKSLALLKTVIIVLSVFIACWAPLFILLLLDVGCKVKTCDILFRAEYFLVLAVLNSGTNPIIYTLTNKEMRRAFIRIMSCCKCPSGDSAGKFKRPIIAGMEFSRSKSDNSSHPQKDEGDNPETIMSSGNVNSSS
pEC50: −log10 of the molar value.
Everything with pEC50 lower than 7 is F; everything else, including exactly 7, is T.

Please review the following examples before continuing.
[
  {
    "structure.smiles": "CCCCCCCCc1ccc(NC(=O)[C@H](N)COP(=O)(O)O)cc1.O=C(O)C(F)(F)F",
    "class.assignment": "T"
  },
  {
    "structure.smiles": "CCCCCCc1ccc(NC(=O)[C@H](N)COP(=O)(O)O)cc1.O=C(O)C(F)(F)F",
    "class.assignment": "F"
  },
  {
    "structure.smiles": "CCCCCCc1ccc(NC(=O)[C@@H](N)COP(=O)(O)O)cc1.O=C(O)C(F)(F)F",
    "class.assignment": "F"
  },
  {
    "structure.smiles": "CCCCCCCCCCc1ccc(NC(=O)[C@H](N)COP(=O)(O)O)cc1.O=C(O)C(F)(F)F",
    "class.assignment": "T"
  }
]

Prompt: Decide: is the reported value of pEC50 for `CCCCCCCCCCCCCCNC(=O)[C@@H](N)COP(=O)(O)O` equal to or greater than 7?
Response: F

###

molecular target: Sphingosine 1-phosphate receptor 2 (Homo sapiens, UniProt O95136); assay: In vitro binding affinity towards human Sphingosine 1-phosphate receptor 2 expressed in HEK293T cells using [gamma-35S]-GTP as radioligand; type: cell-based, HEK-293T
Sequence (O95136 whole entry): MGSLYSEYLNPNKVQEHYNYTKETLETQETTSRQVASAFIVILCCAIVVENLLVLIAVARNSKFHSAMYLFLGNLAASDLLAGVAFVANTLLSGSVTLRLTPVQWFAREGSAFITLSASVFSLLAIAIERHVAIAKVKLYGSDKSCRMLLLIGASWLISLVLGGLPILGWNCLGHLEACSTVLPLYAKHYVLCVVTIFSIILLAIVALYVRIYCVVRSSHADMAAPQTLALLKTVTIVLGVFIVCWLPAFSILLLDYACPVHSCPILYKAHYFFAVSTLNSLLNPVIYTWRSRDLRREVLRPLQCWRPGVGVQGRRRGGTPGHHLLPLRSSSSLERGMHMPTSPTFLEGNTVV
Please respond with reported EC50 for every item in the list.

Hi, could you look up EC50 for each item in my list?
1. CCCCCCCCCCCCCCNC(=O)[C@@H](N)COP(=O)(O)O
2. CCCCCCCCCCCCCCCCNC(=O)[C@@H](N)COP(=O)(O)O

Response:
["2680 nM", "> 5000 nM"]

###

target: UniProt:O95977; assay: In vitro binding affinity towards human Sphingosine 1-phosphate receptor 4 expressed in HEK293T cells using [gamma-35S]-GTP as radioligand (Experiment 2); format: cell-based, HEK-293T
Sequence (O95977 whole entry): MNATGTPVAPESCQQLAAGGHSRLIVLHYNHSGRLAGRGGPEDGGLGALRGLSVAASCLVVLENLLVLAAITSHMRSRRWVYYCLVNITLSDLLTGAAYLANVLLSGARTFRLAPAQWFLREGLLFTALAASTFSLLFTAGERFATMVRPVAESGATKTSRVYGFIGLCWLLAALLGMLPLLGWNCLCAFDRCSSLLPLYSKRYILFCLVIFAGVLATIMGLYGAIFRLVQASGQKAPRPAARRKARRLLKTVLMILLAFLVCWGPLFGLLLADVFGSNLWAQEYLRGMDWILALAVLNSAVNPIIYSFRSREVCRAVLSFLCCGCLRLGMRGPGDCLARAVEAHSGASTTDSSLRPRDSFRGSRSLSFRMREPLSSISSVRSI
readout.label: pEC50
One number for each entry, as −log10 of the molar value.

Prompt: # lookup: pEC50 of `CCCCCCCCCCCCC/C=C/[C@@H](O)[C@@H](N)COP(=O)(O)O`
Response: 6.57

###

molecular target: Sphingosine 1-phosphate receptor 5 (Homo sapiens); test: In vitro binding affinity towards human Sphingosine 1-phosphate receptor 5 expressed in HEK293T cells using [gamma-35S]-GTP as radioligand
Sequence (Q9H228 whole entry): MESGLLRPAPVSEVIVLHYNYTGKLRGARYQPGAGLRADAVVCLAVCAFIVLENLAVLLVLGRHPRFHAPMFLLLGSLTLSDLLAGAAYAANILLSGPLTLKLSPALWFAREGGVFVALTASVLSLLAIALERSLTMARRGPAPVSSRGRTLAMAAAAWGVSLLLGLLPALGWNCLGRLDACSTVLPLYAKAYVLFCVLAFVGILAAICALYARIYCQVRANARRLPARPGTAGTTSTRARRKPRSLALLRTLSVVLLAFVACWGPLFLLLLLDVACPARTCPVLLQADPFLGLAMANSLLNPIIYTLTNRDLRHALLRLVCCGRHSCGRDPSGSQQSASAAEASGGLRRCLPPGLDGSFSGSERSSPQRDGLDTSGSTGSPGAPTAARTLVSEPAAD
Field: pEC50. Provide a value for each of the molecules that follow.
Numbers only, as −log10 of the molar value.

[
  {
    "structure.smiles": "CCCCCCc1ccc(NC(=O)[C@@H](N)COP(=O)(O)O)cc1.O=C(O)C(F)(F)F",
    "tested.on": "Sphingosine 1-phosphate receptor 5 (Homo sapiens)",
    "pEC50": 7.26
  },
  {
    "structure.smiles": "CCCCCCc1ccc(NC(=O)[C@H](N)COP(=O)(O)O)cc1.O=C(O)C(F)(F)F",
    "tested.on": "Sphingosine 1-phosphate receptor 5 (Homo sapiens)",
    "pEC50": 7.37
  },
  {
    "structure.smiles": "CCCCCCCCCCCCCCNC(=O)[C@@H](N)COP(=O)(O)O",
    "tested.on": "Sphingosine 1-phosphate receptor 5 (Homo sapiens)",
    "pEC50": 5.79
  }
]

Dear colleague, could you please provide pEC50 for the molecules listed below?
1. CCCCCCCCCCc1ccc(NC(=O)[C@H](N)COP(=O)(O)O)cc1.O=C(O)C(F)(F)F
2. CCCCCCCCCCCCc1ccc(NC(=O)[C@H](N)COP(=O)(O)O)cc1.O=C(O)C(F)(F)F

Response:
7.39
6.80
